Target: Mu-type opioid receptor (Bos taurus)
Experiment: Binding affinity towards opioid receptor mu 1
pKi: −log10 of the molar value.
pKi below 8 gives rule not met; pKi at or above it gives rule met.

{"compound": "C[C@@H]1C2CCCC1(c1cccc(O)c1)CCN2C (mixture of isomers)", "assayed.system": "Mu-type opioid receptor (Bos taurus)", "assigned.label": "rule not met"}
{"compound": "C[C@@H]1C2CCCC1(c1cccc(O)c1)CCN2C (single isomer, unassigned; (-))", "assayed.system": "Mu-type opioid receptor (Bos taurus)", "assigned.label": "rule not met"}
{"compound": "CN1CCC2(c3cccc(O)c3)CCCC1C2 (single isomer, unassigned; (+))", "assayed.system": "Mu-type opioid receptor (Bos taurus)", "assigned.label": "rule met"}
{"compound": "CN1CCC2(c3cccc(O)c3)CCCC1[C@@H]2O (mixture of isomers)", "assayed.system": "Mu-type opioid receptor (Bos taurus)", "assigned.label": "rule not met"}
{"compound": "C[C@@H]1C2CCCC1(c1cccc(O)c1)CCN2C (single isomer, unassigned; (+))", "assayed.system": "Mu-type opioid receptor (Bos taurus)", "assigned.label": "rule not met"}
{"compound": "CC1(C)SSC(C)(C)[C@@H](NC(=O)[C@@H](N)Cc2ccc(O)cc2)C(=O)NCC(=O)N[C@@H](Cc2ccccc2)C(=O)N[C@H]1C(=O)O", "assayed.system": "Mu-type opioid receptor (Bos taurus)", "assigned.label": "rule not met"}

###

Target: UniProt P41144
Sequence (P41144 whole entry): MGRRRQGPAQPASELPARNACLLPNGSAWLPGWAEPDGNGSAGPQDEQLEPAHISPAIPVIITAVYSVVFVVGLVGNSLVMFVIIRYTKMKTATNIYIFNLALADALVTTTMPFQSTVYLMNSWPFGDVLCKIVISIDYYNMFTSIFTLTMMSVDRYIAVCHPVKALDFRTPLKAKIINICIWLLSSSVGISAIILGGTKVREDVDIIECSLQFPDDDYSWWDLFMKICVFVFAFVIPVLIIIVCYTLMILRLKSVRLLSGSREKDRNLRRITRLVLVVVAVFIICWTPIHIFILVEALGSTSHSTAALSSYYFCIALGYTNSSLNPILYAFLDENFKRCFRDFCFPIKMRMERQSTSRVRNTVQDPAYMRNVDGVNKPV

{"compound": "CN1CCC2(c3cccc(O)c3)CCCC1[C@H]2O (mixture of isomers)", "unit.descriptor": "nM", "modifier.sign": "=", "Ki": 110}
{"compound": "C[C@@H]1C2CCCC1(c1cccc(O)c1)CCN2C (mixture of isomers)", "unit.descriptor": "nM", "modifier.sign": "=", "Ki": 70}
{"compound": "C[C@@H]1C2CCCC1(c1cccc(O)c1)CCN2C (single isomer, unassigned; (-))", "unit.descriptor": "nM", "modifier.sign": "=", "Ki": 49}
{"compound": "CN1CCC2(c3cccc(O)c3)CCCC1C2 (single isomer, unassigned; (+))", "unit.descriptor": "nM", "modifier.sign": "=", "Ki": 98}
{"compound": "CN1CCC2(c3cccc(O)c3)CCCC1C2 (single isomer, unassigned; (-))", "unit.descriptor": "nM", "modifier.sign": "=", "Ki": 200}
{"compound": "C[C@@H]1C2CCCC1(c1cccc(O)c1)CCN2C (single isomer, unassigned; (+))", "unit.descriptor": "nM", "modifier.sign": "=", "Ki": 89}
{"compound": "CN1CCC2(c3cccc(O)c3)CCCC1[C@@H]2O (mixture of isomers)", "unit.descriptor": "nM", "modifier.sign": ">", "Ki": 500}

###

Examples of compounds with documented log10 Ki follow.
Molecular target: Mu-type opioid receptor (Bos taurus, UniProt P79350)
Sequence (P79350 whole entry): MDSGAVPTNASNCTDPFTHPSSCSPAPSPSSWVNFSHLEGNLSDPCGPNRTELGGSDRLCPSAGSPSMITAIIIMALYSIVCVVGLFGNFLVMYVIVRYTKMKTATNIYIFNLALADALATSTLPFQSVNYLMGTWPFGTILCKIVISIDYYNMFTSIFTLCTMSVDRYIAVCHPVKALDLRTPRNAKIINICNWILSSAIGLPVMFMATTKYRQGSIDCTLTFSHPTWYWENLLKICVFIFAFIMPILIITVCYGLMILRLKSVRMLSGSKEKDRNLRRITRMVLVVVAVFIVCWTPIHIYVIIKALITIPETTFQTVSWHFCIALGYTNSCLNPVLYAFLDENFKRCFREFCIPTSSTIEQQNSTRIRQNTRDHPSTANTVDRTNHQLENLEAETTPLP
Assay: Binding affinity towards opioid receptor mu 2
measure.name: log10 Ki (log10 of the value in nM)

{"compound": "CN1CCC2(c3cccc(O)c3)CCCC1[C@H]2O (mixture of isomers)", "measured.value": 1.45}
{"compound": "C[C@@H]1C2CCCC1(c1cccc(O)c1)CCN2C (mixture of isomers)", "measured.value": 2.28}
{"compound": "CC1(C)SSC(C)(C)[C@@H](NC(=O)[C@@H](N)Cc2ccc(O)cc2)C(=O)NCC(=O)N[C@@H](Cc2ccccc2)C(=O)N[C@H]1C(=O)O", "measured.value": 2.66}
{"compound": "CN1CCC2(c3cccc(O)c3)CCCC1C2 (single isomer, unassigned; (-))", "measured.value": 1.80}
{"compound": "C[C@@H]1C2CCCC1(c1cccc(O)c1)CCN2C (single isomer, unassigned; (-))", "measured.value": 1.70}
{"compound": "CN1CCC2(c3cccc(O)c3)CCCC1C2 (single isomer, unassigned; (+))", "measured.value": 1.28}
